- System: L1210 leukemia ip in BDF1 mice, survival T/C
- experimental_protocol: NCI In Vivo Anticancer Drug Screen. Data for tumor model L1210 Leukemia (intraperitoneal) in B6D2F1 (BDF1) mice
- test_context: endpoint: mean survival time; dose: 50.0 mg/kg/injection; schedule: Q04DX003 (ip); vehicle: saline; higher = longer survival
Toxic doses and inconclusive results are not listed.
endpoint_label: T/C

[
  {
    "molecule": "CNC(C)Cc1ccccc1OC (centres undefined)",
    "target_of_assay": "L1210 leukemia ip in BDF1 mice, survival T/C",
    "result": "101 % of control"
  },
  {
    "molecule": "O=C1NC(=O)C([n+]2ccccc2)=C1[O-]",
    "target_of_assay": "L1210 leukemia ip in BDF1 mice, survival T/C",
    "result": "110 % of control"
  },
  {
    "molecule": "CC(C)NC(=O)CCl",
    "target_of_assay": "L1210 leukemia ip in BDF1 mice, survival T/C",
    "result": "92 % of control"
  },
  {
    "molecule": "Oc1c(O)c(Cl)c(Cl)c(Cl)c1Cl",
    "target_of_assay": "L1210 leukemia ip in BDF1 mice, survival T/C",
    "result": "98 % of control"
  }
]

====

- System: L1210 leukemia ip in BDF1 mice, survival T/C
- experimental_protocol: NCI In Vivo Anticancer Drug Screen. Data for tumor model L1210 Leukemia (intraperitoneal) in B6D2F1 (BDF1) mice
- test_context: endpoint: mean survival time; dose: 400.0 mg/kg/injection; schedule: Q01DX009 (ip); vehicle: Klucel (hydroxypropylcellulose) (HPC); higher = longer survival
Inconclusive results and toxic doses are left out.

[
  {
    "chemical_smiles": "N=C(Oc1c(Cl)c(Cl)c(Cl)c(Cl)c1Cl)Oc1c(Cl)c(Cl)c(Cl)c(Cl)c1Cl",
    "target_of_assay": "L1210 leukemia ip in BDF1 mice, survival T/C",
    "T/C": "102 % of control"
  },
  {
    "chemical_smiles": "CCCCCC(OCC)(OCC)OCC",
    "target_of_assay": "L1210 leukemia ip in BDF1 mice, survival T/C",
    "T/C": "92 % of control"
  },
  {
    "chemical_smiles": "Cc1cccc(NC(=O)c2ccc(Cl)c(Cl)c2)c1C",
    "target_of_assay": "L1210 leukemia ip in BDF1 mice, survival T/C",
    "T/C": "88 % of control"
  },
  {
    "chemical_smiles": "Cc1ccc(CNc2ccc(C)cc2)cc1",
    "target_of_assay": "L1210 leukemia ip in BDF1 mice, survival T/C",
    "T/C": "99 % of control"
  },
  {
    "chemical_smiles": "O=[N+]([O-])c1ccc(N=N/C(Cc2ccccc2)=N\\Nc2ccccc2)cc1",
    "target_of_assay": "L1210 leukemia ip in BDF1 mice, survival T/C",
    "T/C": "90 % of control"
  },
  {
    "chemical_smiles": "CN(C)c1ccc(/C=N/NC(=O)c2ccccc2NC(=O)C2CC2)cc1",
    "target_of_assay": "L1210 leukemia ip in BDF1 mice, survival T/C",
    "T/C": "90 % of control"
  },
  {
    "chemical_smiles": "CC(=O)c1cccc(NC(=O)c2c(Br)c(Br)c(Br)c(Br)c2C(=O)O)c1",
    "target_of_assay": "L1210 leukemia ip in BDF1 mice, survival T/C",
    "T/C": "109 % of control"
  },
  {
    "chemical_smiles": "CN(C)c1ccc(/C=N/NC(=O)c2ccc(N)cc2)cc1",
    "target_of_assay": "L1210 leukemia ip in BDF1 mice, survival T/C",
    "T/C": "89 % of control"
  },
  {
    "chemical_smiles": "CCC/C(=C\\C(=O)O)CC",
    "target_of_assay": "L1210 leukemia ip in BDF1 mice, survival T/C",
    "T/C": "96 % of control"
  },
  {
    "chemical_smiles": "COc1ccc(OCCO)cc1",
    "target_of_assay": "L1210 leukemia ip in BDF1 mice, survival T/C",
    "T/C": "103 % of control"
  },
  {
    "chemical_smiles": "Cc1ccc([N+](=O)[O-])cc1NC(=O)N(C(C)C)C1CCCCC1",
    "target_of_assay": "L1210 leukemia ip in BDF1 mice, survival T/C",
    "T/C": "106 % of control"
  },
  {
    "chemical_smiles": "O=C1c2ccccc2C(=O)N1c1ccccc1",
    "target_of_assay": "L1210 leukemia ip in BDF1 mice, survival T/C",
    "T/C": "95 % of control"
  },
  {
    "chemical_smiles": "COc1ccc(CCN2C(=O)c3cccc4c([N+](=O)[O-])ccc(c34)C2=O)cc1OC",
    "target_of_assay": "L1210 leukemia ip in BDF1 mice, survival T/C",
    "T/C": "93 % of control"
  },
  {
    "chemical_smiles": "Cc1cc(OC(=O)Nc2ccc(F)c([N+](=O)[O-])c2)cc(C)c1Cl",
    "target_of_assay": "L1210 leukemia ip in BDF1 mice, survival T/C",
    "T/C": "95 % of control"
  },
  {
    "chemical_smiles": "O=C(Nc1ccccc1Cl)N(Cc1ccccc1)c1ccccc1",
    "target_of_assay": "L1210 leukemia ip in BDF1 mice, survival T/C",
    "T/C": "94 % of control"
  },
  {
    "chemical_smiles": "O=C(Nc1ccc(F)cc1)OCCOc1ccc(Cl)cc1Cl",
    "target_of_assay": "L1210 leukemia ip in BDF1 mice, survival T/C",
    "T/C": "109 % of control"
  },
  {
    "chemical_smiles": "Nc1nnnn1-c1ccccc1-c1ccccc1",
    "target_of_assay": "L1210 leukemia ip in BDF1 mice, survival T/C",
    "T/C": "114 % of control"
  },
  {
    "chemical_smiles": "Cn1nc(N)c2ncc(-c3ccccc3)nc21",
    "target_of_assay": "L1210 leukemia ip in BDF1 mice, survival T/C",
    "T/C": "98 % of control"
  }
]
